Target: T1, 人NKp30-his蛋白(KACTUS;Cat:NKP-HM430) (human, UniProt O14931 19-135)
T1 construct: Bought protein; Molar concentration was calculated with 35 kDa; also called 重组人NKp30-his; 人NKp30蛋白; not shown: his tag
T1 sequence (looked up): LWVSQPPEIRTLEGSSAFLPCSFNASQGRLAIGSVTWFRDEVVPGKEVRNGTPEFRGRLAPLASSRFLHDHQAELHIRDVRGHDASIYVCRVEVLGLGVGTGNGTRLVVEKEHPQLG
Experiment: BLI (Octet Red96e), antibody captured on sensor, 100 nM human NKp30-his in solution, 1:1 model
Recorded koff for the following binders
API: value field is a number in s⁻¹; no unit string.

BINDER: 抗体1 (antibody, V domains shown, Mouse hybridoma monoclonal antibody purified on Protein A; also called 鼠源抗NKp30抗体; NKp30 mAb) VH: QVQLQQPGAELVKPGASVKLSCKASGYTFTSYWMEWVKLRPGQGFDWIGEINPSNGGTNYNEKFKRKAILTVDKSSSAAYMQLSGLTSEDSAVYYCTIGGDYAWFAYWGQGTLVTVSA VL: DIKMTQSPSSMYASLGERVTITCKASQDIKSYLSWYQQKPWKSPKTLIFYATSLADGVPSRFSASGSGQDYSLTISSLESDDTATYYCLQHGESPYTFGGGTKLEIK
koff [s⁻¹]: 0.000708
--
BINDER: 抗体6 (antibody, V domains shown, Mouse hybridoma monoclonal antibody purified on Protein A; also called 鼠源抗NKp30抗体; NKp30 mAb) VH: QVQLQQSGAELVRPGVSVKISCKGSGYTFTDYAMHWVKQSHAKSLEWIGIISTYYGDASYNQKFKGKATMTVDKSSSTAYMELARLTSEDSAIYYCARDYDNRYAAMDYWGQGTSVTVSS VL: DIVMTQAAFSNPVTLGTSASISCRSSKSLLHSNGITYLYWYLQKPGQSPQLLIYQMSNLASGVPDRFSSSGSGTDFTLRISRVEAEDVGVYYCAQNLELPYTFGGGTKLEIK
koff [s⁻¹]: 0.00585
--
BINDER: 抗体5 (antibody, V domains shown, Mouse hybridoma monoclonal antibody purified on Protein A; also called 鼠源抗NKp30抗体; NKp30 mAb) VH: VLILKESGGGLVKPGGSLKLSCAASGFAFSSYDMSWVRQTPEKRLEWVATISSGGSYTYYPDSVKGRFTISRDNARNTLYLQMSSLRSEDTALYYCARHFGDHDGYVMDYWGQGTSVIVSS VL: DIVMTQSPSSLAMSLGQKVTMSCKSSQSLLNSSNQKSNLAWYQQKPGQSPKLLVYFASTRESGVPDRFIGSGSGTDFSLTIRSVQAEDLADYFCQQHYSTPFTFGSGTKLEIK
koff [s⁻¹]: 0.000552
--
BINDER: 抗体3 (antibody, V domains shown, Mouse hybridoma monoclonal antibody purified on Protein A; also called 鼠源抗NKp30抗体; NKp30 mAb) VH: QGQLQQSGAEVMKPGASVKISCKANGHTFGSYWIEWIKQRPGHGLEWIGEILPGSGSKKYNEKFEGKATFTEETSSNTAYMELTSLTSEDSAVYYCSRGGYYGSRFAYWGQGTLVTVSA VL: DVVLTQTPLSLPVNIGDQASISCKSTKSLLNSDGFTYLDWYLQKPGQSPQLLIYLVSNRFSGVPDRFSGSGSGTDFTLKISRVEAEDLGVYYCFQSNYLPFTFGSGTKLEIK
koff [s⁻¹]: 0.00194
--
BINDER: 抗体4 (antibody, V domains shown, Mouse hybridoma monoclonal antibody purified on Protein A; also called 鼠源抗NKp30抗体; NKp30 mAb) VH: EVQLVESGGGLVKPGGSLKLSCAASGFTFSDYGMSWIRQTPEKRLEWVASISSGGTYTYYPDSVKGRFTISRDSAKNTLYLQMNSLRSEDTAMYYCARRDGYYSVEYWGQGTSVTVSS VL: QIVLTQSPAIMSASPGGEVTMTCSASSSVSFMHWYQQKSGTSPKRWIFDTSKLASGVPTRFSGSGSGTSYSLTISSMEAEDAATYYCQQWTTNPPTFGGGTKLEIK
koff [s⁻¹]: 0.000338

With those in mind, consider the next binder.
# koff of 抗体2 (antibody, V domains shown, Mouse hybridoma monoclonal antibody purified on Protein A; also called 鼠源抗NKp30抗体; NKp30 mAb) VH: EVQLQQFGAELVKPGASVKISCKASGYTFTDYNMDWVKQSHGKSLEWIAYINPNYEITTYNQKFKGKATLTVDKSSSTAYMELRSLTSEDTAVYYCARGRGGYDPAMDYWGQGTSVTVSS VL: SIVMTQTPKFLLVSAGDRVTITCKASQSVSNDVTWSQQKPGQSPKLLIYYASNRYTGVPDRFTGSGYGTDFTFTISTVQAEDLAVYLCQQDNSTPPTFGAGTKLELK = 0.000212
